Test system: Tetrahymena pyriformis
test.protocol: 48 h IGC50 (-log10 mol/L); higher = more toxic
Examples of molecules with documented 48 h IGC50 (-log10 mol/L) follow.
# print the numeric value only

Known results for molecules:
C#CCOC(=O)C=C : 4.06
Nc1ccc(Cl)cc1Cl : 3.56
OC12CC3CC(CC(C3)C1)C2 : 2.92
CCOC(=O)C(C)Br (configuration not stated) : 4.06
NC(=S)NCc1ccccc1 : 3.66
CC(C)C(O)C(C)C : 2.29
CCCCC/C=C/C(=O)O : 3.21
C=CC(=O)OCCO : 3.69
CCCCN=C=S : 4.72
C=CC(=O)CC : 4.52

// lookup 48 h IGC50 (-log10 mol/L) for Cc1ccc(-c2ccccc2)cc1
4.66

// lookup 48 h IGC50 (-log10 mol/L) for S=C=NCCc1ccccc1
5.54

// lookup 48 h IGC50 (-log10 mol/L) for Cc1cc(O)ccc1O
4.86

====

Tested on: Pimephales promelas
test.protocol: 96 h LC50 (-log10 mol/L); higher = more toxic
I would appreciate it if you labelled entries T when 96 h LC50 (-log10 mol/L) is 3 or higher, otherwise F.

Illustrative cases are given below, each with its answer.
O=Cc1cccnc1 : T
OCCOCCOCCO : F
COP(=O)(OC)Oc1nc(Cl)c(Cl)cc1Cl : T
CCOP(=S)(OCC)SCCSCC : T
N#Cc1ccccn1 : F

Entry C1CO1 : is its 96 h LC50 (-log10 mol/L) no less than 3?
F

Entry O=Cc1cccc(C(F)(F)F)c1 : is its 96 h LC50 (-log10 mol/L) no less than 3?
T

Entry OCC(Cl)(Cl)Cl : is its 96 h LC50 (-log10 mol/L) no less than 3?
F

Entry CCCCCCCCC#N : is its 96 h LC50 (-log10 mol/L) no less than 3?
T

Entry Oc1ccc(Oc2ccc(O)cc2)cc1 : is its 96 h LC50 (-log10 mol/L) no less than 3?
T

Entry CCOC(=O)CC(=O)OCC : is its 96 h LC50 (-log10 mol/L) no less than 3?
T

Entry CC(C)C(O)C(C)C : is its 96 h LC50 (-log10 mol/L) no less than 3?
F

Entry O=Cc1cc(Br)cc(Br)c1O : is its 96 h LC50 (-log10 mol/L) no less than 3?
T

Entry CCN(CC)CCCC(C)=O : is its 96 h LC50 (-log10 mol/L) no less than 3?
F

Entry COCCCNCc1cc(OC)c(OC)c(OC)c1 : is its 96 h LC50 (-log10 mol/L) no less than 3?
T

Entry COCOC : is its 96 h LC50 (-log10 mol/L) no less than 3?
F

Entry C1CCCCC1 : is its 96 h LC50 (-log10 mol/L) no less than 3?
T

Entry CCC#N : is its 96 h LC50 (-log10 mol/L) no less than 3?
F

Entry NC(=O)c1ccccc1 : is its 96 h LC50 (-log10 mol/L) no less than 3?
F

Entry CC1(C)CC(=O)CC(=O)C1 : is its 96 h LC50 (-log10 mol/L) no less than 3?
F

Entry ClC1C(Cl)C(Cl)C(Cl)C(Cl)C1Cl (stereo unspecified) : is its 96 h LC50 (-log10 mol/L) no less than 3?
T

Entry CCNCCO : is its 96 h LC50 (-log10 mol/L) no less than 3?
F

====

Tested on: Pimephales promelas
test.protocol: 96 h LC50 (-log10 mol/L); higher = more toxic
reported.endpoint: 96 h LC50 (-log10 mol/L)

Known results for compounds:
CC(O)C#N (stereo unspecified) : 4.9
Cc1ccc(C)c(C)c1 : 4.19
Nc1ccc(Cl)c(Cl)c1 : 4.32
CC(C)(CC(=O)O)CC(=O)O : 1.05
CCCCC(CC)CO (stereo unspecified) : 3.66

// lookup 96 h LC50 (-log10 mol/L) for Clc1cc(Cl)cc(C2(CC(Cl)(Cl)Cl)CO2)c1 (stereo unspecified)
5.38

// lookup 96 h LC50 (-log10 mol/L) for Oc1cccnc1Br
2.57

// lookup 96 h LC50 (-log10 mol/L) for O=[N+]([O-])c1ccccc1
3.02

// lookup 96 h LC50 (-log10 mol/L) for CC=CC=CC
3.61

// lookup 96 h LC50 (-log10 mol/L) for CCCCCCCCOC(=O)C(C)O (stereo unspecified)
3.93

// lookup 96 h LC50 (-log10 mol/L) for Oc1ccc2ccccc2c1
4.62

// lookup 96 h LC50 (-log10 mol/L) for Oc1c(Cl)cc(Cl)c(Cl)c1Cl
5.35

// lookup 96 h LC50 (-log10 mol/L) for C=C(C)C(=O)OCCO
2.76

// lookup 96 h LC50 (-log10 mol/L) for c1ccc2nc3ccccc3cc2c1
4.89

// lookup 96 h LC50 (-log10 mol/L) for C#CCN(CC#C)CC#C
2.65

// lookup 96 h LC50 (-log10 mol/L) for ClCCOCOCCCl
2.97

====

Test system: Tetrahymena pyriformis
test.protocol: 48 h IGC50 (-log10 mol/L); higher = more toxic
I would appreciate it if you labelled entries 1.0 when 48 h IGC50 (-log10 mol/L) is 3 or higher, otherwise 0.0.

ClCCCc1ccccc1 : 1.0
c1ccc(Cc2cccnc2)cc1 : 1.0
O=[N+]([O-])c1ccc(O)c(O)c1 : 1.0
CCc1ccc([N+](=O)[O-])cc1 : 1.0
O=[N+]([O-])c1cc([N+](=O)[O-])c(Cl)cc1Cl : 1.0
c1ccc2[nH]ccc2c1 : 1.0
CCCCCCCBr : 1.0
O=C(CBr)Oc1ccc([N+](=O)[O-])cc1 : 1.0
CCOC(=O)CCCCCC(=O)OCC : 1.0
C=CC(=O)CCC : 1.0

Lab note: next compound to report on.
Entry c1ccc2ccccc2c1 : is its 48 h IGC50 (-log10 mol/L) no less than 3?
0.0

====

Tested on: Pimephales promelas
test.protocol: 96 h LC50 (-log10 mol/L); higher = more toxic
Classify by 96 h LC50 (-log10 mol/L). Ranges: low-valued (below 3), mid-valued (3 to below 5), high-valued (5 or more)

Illustrative cases are given below, each with its answer.
C=CCC1=C(C)[C@@H](OC(=O)[C@@H]2[C@@H](C=C(C)C)C2(C)C)CC1=O : high-valued
CCN(CC)C1CCCCC1 : mid-valued
CCC1(c2ccccc2)C(=O)NC(=O)NC1=O : low-valued
C#CC(C)(O)CCC(C)C (centres undefined) : mid-valued
ClC(Cl)(Cl)C(Cl)(Cl)Cl : high-valued
O=S(Cc1ccccc1)Cc1ccccc1 : mid-valued

For the record c1ccc(Nc2ccccc2)cc1 , report the class its 96 h LC50 (-log10 mol/L) corresponds to.
mid-valued

For the record CC(=O)Nc1cccc(O)c1 , report the class its 96 h LC50 (-log10 mol/L) corresponds to.
low-valued

For the record O=C(Nc1cccc(Cl)c1)c1cccc([N+](=O)[O-])c1O , report the class its 96 h LC50 (-log10 mol/L) corresponds to.
high-valued

For the record Clc1cc(Cl)c(Cl)cc1Cl , report the class its 96 h LC50 (-log10 mol/L) corresponds to.
high-valued

For the record COc1ccc(OC)c(C(=O)CBr)c1 , report the class its 96 h LC50 (-log10 mol/L) corresponds to.
high-valued

====

Test system: Tetrahymena pyriformis
test.protocol: 48 h IGC50 (-log10 mol/L); higher = more toxic
I would appreciate it if you labelled entries class 1 when 48 h IGC50 (-log10 mol/L) is 3 or higher, otherwise class 0.

Entry Cc1cc(N)ccc1O : is its 48 h IGC50 (-log10 mol/L) no less than 3?
class 1

Entry O=[N+]([O-])c1cc(CO)cc([N+](=O)[O-])c1 : is its 48 h IGC50 (-log10 mol/L) no less than 3?
class 1

Entry CCCCCCCCC(O)CCC (centres undefined) : is its 48 h IGC50 (-log10 mol/L) no less than 3?
class 1

Entry O=C1CCO1 : is its 48 h IGC50 (-log10 mol/L) no less than 3?
class 0

Entry N#CCCCCl : is its 48 h IGC50 (-log10 mol/L) no less than 3?
class 0

Entry OCC#CCO : is its 48 h IGC50 (-log10 mol/L) no less than 3?
class 0

Entry O=Cc1ccc(Br)cc1 : is its 48 h IGC50 (-log10 mol/L) no less than 3?
class 1

Entry Nc1ccc(O)c(N)c1 : is its 48 h IGC50 (-log10 mol/L) no less than 3?
class 1

Entry CCC(=O)OC(C)(C)C : is its 48 h IGC50 (-log10 mol/L) no less than 3?
class 0

Entry CCC(=O)c1ccc(O)cc1 : is its 48 h IGC50 (-log10 mol/L) no less than 3?
class 1

Entry CCCCCCCCCC(C)O (centres undefined) : is its 48 h IGC50 (-log10 mol/L) no less than 3?
class 1

Entry O=[N+]([O-])c1ncccc1O : is its 48 h IGC50 (-log10 mol/L) no less than 3?
class 1

Entry CC=CCO : is its 48 h IGC50 (-log10 mol/L) no less than 3?
class 0

Entry O=Cc1cccc([N+](=O)[O-])c1 : is its 48 h IGC50 (-log10 mol/L) no less than 3?
class 1

Values from EPA's aquatic toxicity sets
